# tested.system: T1, SHANK2, Q9UPX8
# T1 sequence (Q9UPX8 621-730, limits assumed, looked up): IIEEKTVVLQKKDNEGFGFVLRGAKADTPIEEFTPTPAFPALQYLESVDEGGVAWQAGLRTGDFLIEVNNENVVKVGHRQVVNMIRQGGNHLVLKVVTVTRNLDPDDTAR
# procedure.summary: holdup assay
# Design: key: below the threshold = too weak to quantify, mostly under pKd 3.1 to 4
# reported.conditions: plain residues with an end cap or a label only (N-terminal biotin on a linker: ttds)
observable: pKd

Known results for binders:
| binder | assay.result |
| --- | --- |
| RPLPRKVSQL [DOCK4, Q8N1I0] | below the threshold |
| RLPKIKETTV [FRMPD4, Q14CM0] | below the threshold |
| SGSRPSATVV [HPV73-E6, Q82005] | below the threshold |
| RHTTSTETAV [HPV30-E6, P36809] | below the threshold |

Query string: Give its pKd value. Item: RLQRRRETQV [HPV18-E6, P06463]
Result string: below the threshold

Query string: Give its pKd value. Item: SKPTRRETEV [HPV35-E6, P27228]
Result string: below the threshold

Query string: Give its pKd value. Item: QRQARSETLV [HPV59-E6, Q81964]
Result string: 4.47

Query string: Give its pKd value. Item: SSLQSLETSV [ATP2B4, P23634]
Result string: below the threshold
